target-desc: human TYK2 catalytic kinase (JH1) domain (Homo sapiens (Human))
experiment: ADP-Glo Kinase Assay, recombinant TYK2 catalytic kinase (JH1) domain
Type: biochemical
condition-parameters: recombinant JH1 domain 2 nM, 10 μM ATP, JAK3-974 peptide, mean, read-out: TYK2 biochem IC50 (nM) Mean
reported-endpoint: IC50 (nM)
A number alone suffices; assume nM.

Briefly, IC50 measured for Cn1cc(-c2cc3c(N4CC5CCC(C4)N5C(=O)[C@@H]4CC4(F)F)ncnn3c2)cn1 [Example 83] : 333

Briefly, IC50 measured for O=C(C1CC1)N1C2CCC1CN(c1ncnn3cc(-c4cccnc4)cc13)C2 [Example 183] : 557

Briefly, IC50 measured for COc1cc(-c2cc3c(N4CC5CCC(C4)N5S(=O)(=O)C4CC4)ncnc3[nH]2)ccn1 [Example 192] : 298

Briefly, IC50 measured for O=C([C@@H]1C[C@H]1F)N1C2CCC1CN(c1ncnc3[nH]c(-c4ccnnc4)cc13)C2 [Example 234] : 28.6

Briefly, IC50 measured for CN(C)c1cc(-c2cc3c(N4CC5CCC(C4)N5C(=O)[C@@H]4C[C@H]4F)ccnn3c2)ccn1 [Example 128] : 2.9

Briefly, IC50 measured for O=C(C1CC1)N1C2CCC1CN(c1ccnn3cc(-c4cnn(C(F)(F)F)c4)cc13)C2 [Example 20] : 30.2

Briefly, IC50 measured for Cn1cc(-c2cc3c(N4CC5CCC(C4)N5C(=O)[C@H]4C[C@@H]4F)ncnn3c2)cn1 (racemic) [Example 61] : 37.7

Briefly, IC50 measured for CCn1ncc(-c2cc3c(N4CC5CCC(C4)N5C(=O)C4CC4)ncnn3c2)c1F [Example 161] : 120

====

target-desc: human TYK2 catalytic kinase (JH1) domain (Homo sapiens (Human), UniProt P29597)
Sequence (P29597 897-1176): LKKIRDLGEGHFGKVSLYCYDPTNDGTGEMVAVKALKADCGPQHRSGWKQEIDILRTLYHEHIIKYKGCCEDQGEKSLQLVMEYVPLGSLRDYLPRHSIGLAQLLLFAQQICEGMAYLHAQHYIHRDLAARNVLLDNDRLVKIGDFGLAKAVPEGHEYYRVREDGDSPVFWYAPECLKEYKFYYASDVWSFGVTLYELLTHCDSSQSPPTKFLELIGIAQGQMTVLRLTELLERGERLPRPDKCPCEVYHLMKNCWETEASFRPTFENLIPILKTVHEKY
experiment: ADP-Glo Kinase Assay, recombinant TYK2 catalytic kinase (JH1) domain
Type: biochemical
condition-parameters: recombinant JH1 domain 2 nM, 10 μM ATP, JAK3-974 peptide, mean, read-out: TYK2 biochem IC50 (nM) Mean
Assignment: determine reported IC50 for the given compounds.
A number alone suffices; assume nM.

Lab entry: human TYK2 catalytic kinase (JH1) domain (Homo sapiens (Human), UniProt P29597) assay, compound Cn1cc(-c2cc3c(N4CC5CCC(C4)N5C(=O)CC#N)ncnn3c2)cn1 [Example 62] , IC50 = 351

Lab entry: human TYK2 catalytic kinase (JH1) domain (Homo sapiens (Human), UniProt P29597) assay, compound O=C([C@@H]1C[C@H]1CO)N1C2CCC1CN(c1ncnn3cc(-c4cnn(C(F)F)c4)cc13)C2 (single isomer, unassigned) [Example 40] , IC50 = 289

Lab entry: human TYK2 catalytic kinase (JH1) domain (Homo sapiens (Human), UniProt P29597) assay, compound Cn1cc(-c2[nH]c3nccc(N4CC5CCC(C4)N5C(=O)[C@@H]4C[C@H]4F)c3c2C#N)cn1 [Example 250] , IC50 = 7.1

Lab entry: human TYK2 catalytic kinase (JH1) domain (Homo sapiens (Human), UniProt P29597) assay, compound Cn1cc(-c2cc3c(N4CC5CCC(C4)N5C(=O)[C@@H]4C[C@H]4F)ncnn3c2)cn1 [Example 2] , IC50 = 4.7

Lab entry: human TYK2 catalytic kinase (JH1) domain (Homo sapiens (Human), UniProt P29597) assay, compound O=C(N1C2CCC1CN(c1ncnn3cc(-c4cnn(C(F)F)c4)cc13)C2)C1(F)CC1 [Example 50] , IC50 = 295

Lab entry: human TYK2 catalytic kinase (JH1) domain (Homo sapiens (Human), UniProt P29597) assay, compound O=C([C@@H]1C[C@H]1F)N1C2CCC1CN(c1ccnn3cc([C@H]4CC4(F)F)cc13)C2 (single isomer, unassigned) [Example 135] , IC50 = 125

Lab entry: human TYK2 catalytic kinase (JH1) domain (Homo sapiens (Human), UniProt P29597) assay, compound N#CCC(=O)N1C2CCC1CN(c1ncnn3cc(-c4cnn(C(F)F)c4)cc13)C2 [Example 44] , IC50 = 236

Lab entry: human TYK2 catalytic kinase (JH1) domain (Homo sapiens (Human), UniProt P29597) assay, compound Cn1cc(-c2cc3c(N4CC5CCC(C4)N5C(=O)[C@H]4CC4(F)F)ncnn3c2)cn1 [Example 84] , IC50 = 55

Lab entry: human TYK2 catalytic kinase (JH1) domain (Homo sapiens (Human), UniProt P29597) assay, compound O=C([C@@H]1C[C@H]1F)N1C2CCC1CN(c1ccnn3cc([C@@H]4CC4(F)F)cc13)C2 (single isomer, unassigned) [Example 136] , IC50 = 381

Lab entry: human TYK2 catalytic kinase (JH1) domain (Homo sapiens (Human), UniProt P29597) assay, compound Cc1cncc(-c2cc3c(N4CC5CCC(C4)N5C(=O)[C@@H]4C[C@H]4F)ccnn3c2)n1 [Example 130] , IC50 = 52.8

Lab entry: human TYK2 catalytic kinase (JH1) domain (Homo sapiens (Human), UniProt P29597) assay, compound Cn1ncc(-c2cc3c(N4CC5CCC(C4)N5C(=O)[C@@H]4C[C@H]4F)ccnn3c2)c1F [Example 121] , IC50 = 4.7

Lab entry: human TYK2 catalytic kinase (JH1) domain (Homo sapiens (Human), UniProt P29597) assay, compound Cn1cc(-c2cc3c(N4CC5CCC(C4)N5C(=O)[C@H]4C[C@@H]4F)ncnn3c2)cn1 (single isomer, unassigned) [Example 81] , IC50 = 31.2

Lab entry: human TYK2 catalytic kinase (JH1) domain (Homo sapiens (Human), UniProt P29597) assay, compound CC1(C)C(C(=O)N2C3CCC2CN(c2ncnn4cc(-c5cnn(C(F)F)c5)cc24)C3)C1(F)F (stereo not drawn) [Example 13] , IC50 = 688

Lab entry: human TYK2 catalytic kinase (JH1) domain (Homo sapiens (Human), UniProt P29597) assay, compound O=C([C@@H]1C[C@H]1F)N1C2CCC1CN(c1ccnn3cc(-c4ncc(F)cn4)cc13)C2 [Example 108] , IC50 = 48

Lab entry: human TYK2 catalytic kinase (JH1) domain (Homo sapiens (Human), UniProt P29597) assay, compound O=C([C@@H]1CC1(F)F)N1C2CCC1CN(c1ccnn3cc(C4CC4)cc13)C2 [Example 25] , IC50 = 662
